- test.target: cyclin E/CDK2 enzyme (Homo sapiens, UniProt P24941)
- Construct: made in house; host or cells: Sf9 insect cells, recombinant baculovirus
- protocol.notes: CDK2 ELISA kinase assay (phospho-Rb ser 795 detection)
- Assay type: biochemical
- condition.details: In Vitro Enzyme Assays, read-out: CDK2 IC50
For each entry below, report its log10(IC50) value.
Kindly note that the scale is log10 and the underlying IC50 is in µM.

The examples below pair each entry with its known result.
CN(C)CCCCN/C=C1\C(=O)NC(=O)c2ccc(Br)cc21 ... 1.60
O=C1NC(=O)c2ccc(Br)cc2/C1=C/NCc1cc(O)ccc1O ... 0.67
CN(C)Cc1ccc(N/C=C2\C(=O)NC(=O)c3ccccc32)cc1 ... 1.36

Give log10(IC50) for each listed item.
1. O=C1NC(=O)c2ccc(I)cc2/C1=C/Nc1ccc2ncccc2c1
2. O=C1NC(=O)c2ccc(Br)cc2/C1=C/NCc1cc[nH]c(=O)c1
3. C=CC(=O)Nc1ccc(CN/C=C2\C(=O)NC(=O)c3ccc(Br)cc32)cc1O

Result:
[1.60, 0.43, 0.92]

Report log10(IC50) for every entry below.
1. CC(C)Oc1ccc(CN/C=C2\C(=O)NC(=O)c3ccc(Br)cc32)cc1O
2. CC(N)(C(=O)O)c1ccc(NC=C2C(=O)NC(=O)c3ccc(Br)cc32)cc1 (stereo not shown)
3. CN1CCN(c2ccc(N/C=C3\C(=O)NC(=O)c4cc(Br)ccc43)cc2)CC1
4. CN1CCN(c2ccc(N/C=C3\C(=O)NC(=O)c4ccc(C#Cc5ccsc5)cc43)cc2)CC1
5. C[C@@H]1CN(c2c(F)cc(N/C=C3\C(=O)NC(=O)c4ccc(Br)cc43)cc2F)C[C@H](C)N1
6. O=C1NC(=O)c2ccc(Br)cc2/C1=C/Nc1ccc(CN2CCC(O)CC2)cc1
7. COc1ccc(CN(C)/C=C2\C(=O)NC(=O)c3ccc(Br)cc32)cc1O

Result:
[1.53, 1.60, 1.67, 0.52, 0.49, 0.86, 1.65]

====

Structures can show the parent of a compound that is named as a salt.
Answer each item with its documented melting point.

Take a look at these entries with their results.
O=C1NC(=O)c2ccc(I)cc2/C1=C/NCc1ccc(-n2cccc2)c(O)c1 [Example 514] ... 230 to 231 °C
COC[C@H]1CCCN1c1ccc2c(c1)/C(=C/Nc1ccc(CN3CCCCC3)cc1)C(=O)NC2=O [Example 121] ... 135 to 136 °C
COc1ccc(CN/C=C2\C(=O)NC(=O)c3ccc(F)cc32)cc1O [Example 68] ... 200 to 201 °C
CCCOc1ccc(CN/C=C2\C(=O)NC(=O)c3ccc(-c4ccc(F)c(F)c4)cc32)cc1O (as salt: sodium) [Example 194] ... 227 to 228 °C
O=C1NC(=O)c2ccccc2/C1=C/Nc1cccc(CN2CCCCC2)c1 [Example 16] ... 173 to 174 °C

Please give melting point for each item listed below.
1. COC1CCN(Cc2ccc(N/C=C3\C(=O)NC(=O)c4ccc(I)cc43)cc2)CC1 [Example 394]
2. O=C1NC(=O)c2ccc(-c3ccc(Oc4ccccc4)cc3)cc2/C1=C/Nc1ccc(CN2CCCCC2)cc1 [Example 101]
3. COCCOc1ccc(CN/C=C2\C(=O)NC(=O)c3ccc(Br)cc32)cc1O [Example 158]

Result:
["199 to 200 °C", "132 to 133 °C", "179 to 180 °C"]

I'm hoping you can list melting point for every compound here, please.
1. COc1ccc2c(c1)C(=CNc1ccc(CN3CCCCC3)cc1)C(=O)NC2=O [Example 91]
2. CC1CCCN1Cc1ccc(N/C=C2\C(=O)NC(=O)c3ccc(I)cc32)cc1 (stereo not shown) [Example 138]
3. CC(C)(C)c1ccc2c(c1)/C(=C/NCc1cc(O)c(-c3ccccc3)cn1)C(=O)NC2=O [Example 531]
4. O=C1NCc2ccccc2C1=CNc1ccc(CN2CCCCC2)cc1 [Example 162]
5. O=C1NC(=O)c2ccc(Br)cc2/C1=C/NCc1ccc(OC(F)F)c(O)c1 [Example 180]

Result:
1. 272 to 275 °C (dec.)
2. 157 to 158 °C
3. 195 to 218 °C (dec.)
4. 188 to 189 °C (dec.)
5. 256 to 258 °C

// each listed compound needs a value for melting point
1. O=C1NC(=O)c2ccc(-n3cccc3)cc2/C1=C/Nc1ccc(CN2CCCCC2)cc1 [Example 74]
2. C[C@@H]1CN(c2ccc(N/C=C3\C(=O)NC(=O)c4ccc(-c5ccsc5)cc43)cc2)C[C@H](C)N1C(=O)CN(C)C [Example 380]
3. O=C1NC(=O)c2ccccc2/C1=C/Nc1ccc(CN2CCCCC2)cc1 [Example 13]
4. C[C@@H]1CN(c2ccc(N/C=C3\C(=O)NC(=O)c4ccc(-c5ccc(F)cc5)cc43)cc2F)C[C@H](C)N1 [Example 326]
5. C[C@@H]1CN(c2ccc(N/C=C3\C(=O)NC(=O)c4ccc(-c5ccsc5)cc43)cc2F)C[C@H](C)N1 [Example 325]
6. CCCOc1cnc(CN/C=C2\C(=O)NC(=O)c3ccc(C4CCCC4)cc32)cc1O [Example 538]
7. CC(=O)Oc1cc(CNC=C2C(=O)NC(=O)c3ccc(Br)cc32)cc(OC(C)=O)c1 [Example 69]
8. Nc1cccc(CN/C=C2\C(=O)NC(=O)c3ccc(Br)cc32)c1 [Example 52]

Result:
207 to 208 °C
198 to 199 °C
185 to 186 °C
182 to 183 °C
214 to 215 °C
263 to 266 °C (dec.)
257 to 258 °C
214 to 215 °C

Ask: Sample CC(=O)Oc1ccc(CN/C=C2\C(=O)NC(=O)c3ccc(Br)cc32)cc1OC(C)=O [Example 54] — what was its melting point?
Result: 239 to 240 °C

====

- test.target: cyclin B/CDK1 enzyme (Homo sapiens)
- Construct: purchased New England BioLabs; host or cells: Sf9 insect cells, recombinant baculovirus
- Sequence (P06493 whole entry): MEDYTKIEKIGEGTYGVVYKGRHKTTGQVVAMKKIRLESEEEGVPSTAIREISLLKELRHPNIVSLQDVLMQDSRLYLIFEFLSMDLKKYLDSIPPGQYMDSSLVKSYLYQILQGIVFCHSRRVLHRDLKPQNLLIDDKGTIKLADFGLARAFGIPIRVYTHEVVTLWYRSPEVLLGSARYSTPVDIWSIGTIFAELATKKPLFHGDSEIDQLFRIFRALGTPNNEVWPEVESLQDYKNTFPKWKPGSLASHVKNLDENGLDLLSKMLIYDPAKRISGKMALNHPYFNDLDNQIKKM
- Sequence (P14635 whole entry partner): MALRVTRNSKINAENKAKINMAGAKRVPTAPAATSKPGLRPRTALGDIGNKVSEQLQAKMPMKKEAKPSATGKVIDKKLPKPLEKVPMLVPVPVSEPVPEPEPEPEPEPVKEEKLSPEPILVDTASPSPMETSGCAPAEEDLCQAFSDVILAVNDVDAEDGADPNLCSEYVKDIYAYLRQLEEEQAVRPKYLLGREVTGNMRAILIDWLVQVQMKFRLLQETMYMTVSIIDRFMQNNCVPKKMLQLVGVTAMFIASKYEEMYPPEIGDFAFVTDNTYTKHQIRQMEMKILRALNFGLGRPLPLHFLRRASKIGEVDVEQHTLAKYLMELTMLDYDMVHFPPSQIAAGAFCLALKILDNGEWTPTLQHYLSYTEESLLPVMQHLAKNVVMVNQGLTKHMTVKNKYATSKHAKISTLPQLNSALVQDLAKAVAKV
- protocol.notes: CDK1 ELISA kinase assay (phospho-Rb ser 795 detection)
- Type: biochemical
- condition.details: In Vitro Enzyme Assay, cyclin B/CDK1, read-out: CDK1 IC50
pIC50: −log10 of the molar value.
measured.parameter: pIC50

Cc1cccc(-c2ccc3c(c2)C(=CNCc2ccc(O)c(O)c2)C(=O)NC3=O)c1 ... < 4.30
O=C1NC(=O)c2ccc(I)cc2/C1=C/NCc1ccc(I)c(O)c1 ... < 4.30

Alright, here's another compound for you.
Ask: # lookup: pIC50 of COC[C@@H]1CCCN1Cc1ccc(N/C=C2\C(=O)NC(=O)c3ccc(-c4ccco4)cc32)cc1
Result: < 4.30

====

- test.target: cyclin B/CDK1 enzyme (Homo sapiens)
- Construct: purchased New England BioLabs; host or cells: Sf9 insect cells, recombinant baculovirus
- protocol.notes: CDK1 ELISA kinase assay (phospho-Rb ser 795 detection)
- Assay type: biochemical
- condition.details: In Vitro Enzyme Assays, read-out: CDK1 IC50
pIC50: −log10 of the molar value.
measured.parameter: pIC50

C=CC(=O)Nc1ccc(CN/C=C2\C(=O)NC(=O)c3ccc(Br)cc32)cc1O ... < 4.30
CN1CCN(c2ccc(N/C=C3\C(=O)N(CO)C(=O)c4ccc(Br)cc43)cc2)CC1 ... < 4.30
Nc1cc(CN/C=C2\C(=O)NC(=O)c3ccc(Br)cc32)cc(O)c1O ... < 4.30
COc1ccc(CN/C=C2\C(=O)NC(=O)c3ccc(-n4cccc4)cc32)cc1O ... 5.01
O=C(O)CCCN/C=C1\C(=O)NC(=O)c2ccc(Br)cc21 ... < 4.30

Go through the list and state pIC50 for each entry.
1. CN1CCN(c2ccc(N/C=C3\C(=O)NC(=O)c4ccc(-c5ccoc5)cc43)cc2F)CC1
2. C[C@@H]1CN(c2ccc(N/C=C3\C(=O)NC(=O)c4ccc(-c5ccoc5)cc43)cc2)C[C@H](C)N1
3. Cc1cc(N/C=C2\C(=O)NC(=O)c3ccc(-c4ccsc4)cc32)cnc1N1C[C@@H](C)N[C@@H](C)C1
4. CCC(=O)Nc1ccc(CN/C=C2\C(=O)NC(=O)c3ccc(Br)cc32)cc1
5. CN1CCN(c2ccc(N/C=C3\C(=O)NC(=O)c4ccc(-c5cccc(F)c5)cc43)cc2)CC1
6. CN(C)CCCN(C)c1ccc(N/C=C2\C(=O)NC(=O)c3ccc(Br)cc32)cc1
7. CN1CCN(c2ccc(N/C=C3\C(=O)NC(=O)c4ccc(-c5ccsc5)cc43)cn2)CC1
8. CCCOc1ccc(CN/C=C2\C(=O)NC(=O)c3ccc(I)cc32)cc1O

Result:
1. < 4.30
2. < 4.30
3. < 4.30
4. < 4.30
5. < 4.30
6. < 4.30
7. < 4.30
8. 4.86

Please state, for each entry, its recorded pIC50.
1. O=Cc1sccc1-c1ccc2c(c1)/C(=C/Nc1ccc(CN3CCCCC3)cc1)C(=O)NC2=O
2. O=C1NC(=O)c2ccccc2/C1=C/Nc1ccc(CN2CCOCC2)cc1
3. C[C@@H]1CN(c2ccc(N/C=C3\C(=O)NC(=O)c4ccc(-c5ccc(F)cc5)cc43)cc2)C[C@H](C)N1

Result:
1: < 4.30; 2: < 4.57; 3: 4.51
